The values you see were collected from patent US20250179047A1.

Target: UniProt P10415
Sequence (P10415 other isoform, or with tags, fused parts or gaps): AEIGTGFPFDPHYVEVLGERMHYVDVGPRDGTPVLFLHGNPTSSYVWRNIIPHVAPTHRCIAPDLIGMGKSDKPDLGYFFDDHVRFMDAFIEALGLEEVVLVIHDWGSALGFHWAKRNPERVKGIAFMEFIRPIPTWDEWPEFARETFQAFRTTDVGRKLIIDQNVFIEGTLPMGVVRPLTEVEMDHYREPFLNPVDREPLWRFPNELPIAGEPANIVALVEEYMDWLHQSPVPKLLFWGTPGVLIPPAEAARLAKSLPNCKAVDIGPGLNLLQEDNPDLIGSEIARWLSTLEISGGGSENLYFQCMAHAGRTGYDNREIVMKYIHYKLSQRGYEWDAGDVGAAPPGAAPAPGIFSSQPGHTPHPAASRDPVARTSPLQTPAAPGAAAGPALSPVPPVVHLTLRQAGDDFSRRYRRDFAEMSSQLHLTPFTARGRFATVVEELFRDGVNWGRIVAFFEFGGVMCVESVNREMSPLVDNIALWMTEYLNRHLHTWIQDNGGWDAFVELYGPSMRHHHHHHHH
Experiment: TR-FRET competitive binding assay, BCL2 WT
Conditions: Ki determined from IC50, read-out: TR_FRET EKI_Bcl2 WT
pKi: −log10 of the molar value.
attribute measured: pKi

I. Cc1c(N(C(=O)c2cc(-c3cc4c(cc3C(=O)N3Cc5ccccc5C[C@H]3CN3CCCCC3)CN(C(=O)Cc3ccc(OCCN5C[C@@H](C)O[C@@H](C)C5)cc3)CC4)n(C)c2C)c2ccc(O)cc2)cc(C#N)n1C [Example 98]
II. Cc1c(N(C(=O)c2cc(-c3cc4c(cc3C(=O)N3Cc5ccccc5C[C@H]3CN3CCC[C@@H](C)C3)CN(C(=O)Cc3ccc(OCCN5CCOCC5)cc3F)CC4)n(C)c2C)c2ccc(O)cc2)cc(C#N)n1C [Example 124]
# query: argmin of pKi over I and II Returns: label corresponding to the selected item.
II
